B1: tRNA (parent)
chain: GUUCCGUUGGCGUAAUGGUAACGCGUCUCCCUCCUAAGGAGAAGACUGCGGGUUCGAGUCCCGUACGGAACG

variants of: B1; experiment: yeast fitness relative to wild type (ratio to wild type); higher = fitter; tRNA-Arg(CCU), competitive growth, 37 C, YPD
Fewer inactive variants are shown than the library holds.
Returns one of Condition met or Condition not met; Condition met when yeast fitness is >= 0.6.

> print(dat)
                             query.sequence  qualitative.label
1  GUUCCGUUGGCGUAAUGGUAACGCGUCUCCCUCCUAAGGAGACGACUGGGGGUUCGAGUCCCGUACGGAACG [A43C C49G]      Condition met
2  GUUCAGUUGGCGUAAUGGUAACGCGUCUAGCUCCUAAGGAGAAGACUGCGGGUUUGAGUCGCGUCCGGAACG [C5A C29A C30G C55U C61G A65C]  Condition not met
3  GUUCCGUUGGCGUACUGGUAACGCGUCUCCCUCCUAAGGCGAAGACUGCGGGUCCGAGUCCCGUACGGAACG [A15C A40C U54C]  Condition not met
4  GUUCCGUUGGCGUAAUGGUAUCGCGUCUCCCUCCUAAGGAGAAGACUGCGGAUUCGAGUCCCGUUCGGAACG [A21U G52A A65U]  Condition not met
5  GUUCCGUUGGCGUAAUGGUAACGCGUCUCCCUCCUAAGGAGAAGACUGCGGGUUCGAGUCUCGUACGGGCCG [C61U A69G A70C]      Condition met

Can GUUCCGUUGGCAUAAUGGUAACGCGUCUCCCUCCUAAGGAGAAGACUGCGGGUUCGAGUCCCGUACGGAUCG [G12A A70U] be said to have yeast fitness at or above 0.6?
Condition met

Can GUUCCGCUGGCGUAAUGGUAAUGCGUCUCCAUCCUAAAGAGAAGAGUGCGGGUUCGAGUCCCGUACCGAACG [U7C C22U C31A G38A C46G G67C] be said to have yeast fitness at or above 0.6?
Condition not met

Can GUUCCGUUGGCGUAAUAGUAAUGCGUCUCCCACUUAGGGUGAAGACUGCGGGUUCGAGUCCAAUACGGAACG [G17A C22U U32A C34U A37G A40U C62A G63A] be said to have yeast fitness at or above 0.6?
Condition not met

Can GUUCUGUUGGCGUCAUGGUAACGCGUCUCCCUCCUAAGGAGAAGACUGCGGGUUCGAGUCUCGUACGGAACG [C5U A14C C61U] be said to have yeast fitness at or above 0.6?
Condition not met

Can GUUCCGUUGCCGUAAUGGUAACGCGUUUCCCUCCUAAAGAGAAGAGUGCGGGUUCGAGUCCCAUACGGAACG [G10C C27U G38A C46G G63A] be said to have yeast fitness at or above 0.6?
Condition not met

Can GUUCCGUUGGCGUAAUGGUAACGCGUCUCCCUCCUAAGGAGAAGACCGCCGGUUCGAGUCCCGUACGGAACG [U47C G50C] be said to have yeast fitness at or above 0.6?
Condition met
